Vd values by entry
# test: Volume of distribution at steady state in cynomolgus monkey at 2.5 mg/kg
# Format: ADME, organism-based, Macaca fascicularis
# Set-up: dose 2.5 mg/kg
# stated-conditions: in vivo, read-out: Vdss
Numeric only. Scale: L/kg

molecule	assay-endpoint	endpoint-result
C[C@@]1(c2nc3c(C(N)=O)cccc3[nH]2)CCCN1	Vd	3

Now look at this entry.
Q: Write down Vd measured for item C[C@]1(c2nc3c(C(N)=O)cccc3[nH]2)CCCN1 [VELIPARIB]
Result: 3.1

====

half-life values by entry
# test: Half life in CD1 mouse at 3 mg/kg, iv
# Type: ADME, organism-based
# Parameters: dose 3 mg/kg, route intravenous
# stated-conditions: in vivo
Numeric only. Scale: h

compound	units-of-measure	half-life
CC1(c2nc3c(C(N)=O)cccc3[nH]2)CCCCN1 (configuration not stated)	h	1.5
CN1CCCC1(C)c1nc2c(C(N)=O)cccc2[nH]1 (configuration not stated)	h	0.55
C[C@@]1(c2nc3c(C(N)=O)cccc3[nH]2)CCCN1	h	1.2
CC(C)N1CCC(C)(c2nc3c(C(N)=O)cccc3[nH]2)C1 (configuration not stated)	h	1.4
C[C@]1(c2nc3c(C(N)=O)cccc3[nH]2)CCCN1	h	1.6
C[C@]1(c2nc3c(C(N)=O)cc(F)cc3[nH]2)CCCN1	h	0.5

Q: Write down half-life measured for item CC1(c2nc3c(C(N)=O)cccc3[nH]2)CCNCC1
Result: 1.2

====

# test: Oral bioavailability in Beagle dog at 2.5 mg/kg
# Assay type: ADME, organism-based, Canis lupus familiaris
# stated-conditions: in vivo
assay-endpoint: bioavailability (%)
Numeric only. Scale: %

compound	units-of-measure	bioavailability
C[C@]1(c2nc3c(C(N)=O)cccc3[nH]2)CCCN1 [VELIPARIB]	%	72

Now look at this entry.
Q: Write down bioavailability measured for item C[C@@]1(c2nc3c(C(N)=O)cccc3[nH]2)CCCN1
Result: 48

====

# test: Cmax in Sprague-Dawley rat at 5 mg/kg, po
# Type: ADME, organism-based
# Design: dose 5 mg/kg, route oral
# stated-conditions: in vivo
Cmax values by entry
Numeric only. Scale: µg/mL

compound	units-of-measure	endpoint-result
C[C@@]1(c2nc3c(C(N)=O)cccc3[nH]2)CCCN1	µg/mL	0.6

Now look at this entry.
Q: Write down Cmax measured for item C[C@]1(c2nc3c(C(N)=O)cccc3[nH]2)CCCN1 [VELIPARIB]
Result: 0.5

====

# test: Oral bioavailability in CD1 mouse at 10 mg/kg
# Format: ADME, organism-based
# stated-conditions: in vivo
Decision: bioavailability compared against 70%; not below it gives yes, below it gives no.

Please review the following examples before continuing.
compound	assigned-label
CC1(c2nc3c(C(N)=O)cccc3[nH]2)CCNCC1	no
CC(C)N1CCC(C)(c2nc3c(C(N)=O)cccc3[nH]2)C1 (configuration not stated)	yes
C[C@]1(c2nc3c(C(N)=O)cc(F)cc3[nH]2)CCCN1	yes
C[C@@]1(c2nc3c(C(N)=O)cccc3[nH]2)CCCN1	no
CC1(c2nc3c(C(N)=O)cccc3[nH]2)CCCCN1 (configuration not stated)	yes
CN1CCCC1(C)c1nc2c(C(N)=O)cccc2[nH]1 (configuration not stated)	no

Next item in the queue.
Q: # check: bioavailability of C[C@]1(c2nc3c(C(N)=O)cccc3[nH]2)CCCN1 is greater than or equal to 70%
Result: yes
